# tgt: aldehyde dehydrogenase (low Km) (Rattus norvegicus, UniProt P11884)
# Construct: The aldehyde dehydrogenase activity in the homogenate after incubation for 1 h; from tissue; host or cells: rat liver homogenate
# Sequence (P11884 20-519): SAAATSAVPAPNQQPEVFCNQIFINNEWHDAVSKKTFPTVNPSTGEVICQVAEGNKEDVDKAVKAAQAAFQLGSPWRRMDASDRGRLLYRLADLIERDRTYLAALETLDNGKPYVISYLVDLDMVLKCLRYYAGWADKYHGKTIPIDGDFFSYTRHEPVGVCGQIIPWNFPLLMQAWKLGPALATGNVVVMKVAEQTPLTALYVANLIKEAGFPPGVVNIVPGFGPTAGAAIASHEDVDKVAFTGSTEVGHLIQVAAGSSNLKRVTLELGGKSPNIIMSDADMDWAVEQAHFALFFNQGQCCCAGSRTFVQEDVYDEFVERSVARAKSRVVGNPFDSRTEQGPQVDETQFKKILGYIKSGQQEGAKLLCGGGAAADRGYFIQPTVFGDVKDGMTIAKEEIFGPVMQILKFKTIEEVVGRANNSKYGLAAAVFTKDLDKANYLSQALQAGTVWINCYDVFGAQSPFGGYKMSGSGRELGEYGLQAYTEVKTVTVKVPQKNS
# experiment-description: In vitro inhibition of aldehyde dehydrogenase of low Km, rat liver homogenate
# Assay type: biochemical
# measurement-parameters: 1 h incubation, 2760 μmol/liter, water ref. = 100, double determinations, 4 rats, read-out: Residual activity of aldehyde dehydrogenase (Low Km in % of ref. value)
measured-metric: remaining activity at 2760 µM (%)

Below, 3 molecules whose answers are already recorded.
- molecule: "CCCN(CCC)C(=O)SC"
  remaining activity at 2760 µM [%]: 11
- molecule: "CSC(=O)N1CCCC1"
  remaining activity at 2760 µM [%]: 9
- molecule: "CSC(=O)N(C)C [X = CH3, R = CH3, R1 = CH3]"
  remaining activity at 2760 µM [%]: 16

P. CSC(=O)Nc1ccccc1
Q. CSC(=O)NCCc1ccccc1
R. CSC(=O)N1CCCCC1
**Query** Put these in order: smallest remaining activity at 2760 µM first, largest last. Returns: the labels arranged in the requested order.
**Result** Q, P, R
(Q: 0%, P: 8%, R: 16%)

====

# tgt: aldehyde dehydrogenase (low Km) (Rattus norvegicus)
# Construct: The aldehyde dehydrogenase activity in the homogenate after incubation for 1 h; from tissue; host or cells: rat liver homogenate
# experiment-description: In vitro inhibition of aldehyde dehydrogenase of low Km, rat liver homogenate
# Assay type: biochemical
# measurement-parameters: 1 h incubation, 2760 μmol/liter, water ref. = 100, double determinations, 4 rats, read-out: Residual activity of aldehyde dehydrogenase (Low Km in % of ref. value)
measured-metric: remaining activity at 2760 µM (%)

- smi: "CCN(CC)C(=O)SC"
  tgt: "aldehyde dehydrogenase (low Km) (Rattus norvegicus)"
  unit-label: "%"
  remaining activity at 2760 µM: 73
- smi: "CCSC(=O)N(CC)CC"
  tgt: "aldehyde dehydrogenase (low Km) (Rattus norvegicus)"
  unit-label: "%"
  remaining activity at 2760 µM: 8
- smi: "CSC(=O)NCCc1ccc(O)cc1"
  tgt: "aldehyde dehydrogenase (low Km) (Rattus norvegicus)"
  unit-label: "%"
  remaining activity at 2760 µM: 10

Measured values drawn from patent US5100916A for this set.
